# Test system: Escherichia coli TOP10
# assay_details: shrunken log2 fold change of peptide-encoding DNA abundance (4.5 h post-induction vs induction); higher = less antimicrobial activity (less host growth inhibition)
# assay_conditions: time post-induction: 4.5 h; library: site-saturation at positions 5, 18, 19, 20
Use shrunken log2 fold change to assign classes; range list: lowest (below -0.1), middle (-0.1 to below 0.02), highest (0.02 or more)

Consider the worked cases shown below.
| entry_sequence | target_system | qualitative_label |
| --- | --- | --- |
| RRIRVRPPRLPRPRPRPRSEPRP | Escherichia coli TOP10 | lowest |
| RRIRSRPPRLPRPRPRPAYMPRP | Escherichia coli TOP10 | lowest |
| RRIRFRPPRLPRPRPRPWNVPRP | Escherichia coli TOP10 | lowest |
| RRIRERPPRLPRPRPRPIKWPRP | Escherichia coli TOP10 | middle |
| RRIRARPPRLPRPRPRPMGHPRP | Escherichia coli TOP10 | highest |
| RRIRPRPPRLPRPRPRPSGSPRP | Escherichia coli TOP10 | middle |
| RRIRMRPPRLPRPRPRPNYPPRP | Escherichia coli TOP10 | lowest |
| RRIRWRPPRLPRPRPRPAGNPRP | Escherichia coli TOP10 | highest |

Query: Hi, small favor: classify RRIRERPPRLPRPRPRPGTIPRP by its shrunken log2 fold change when you get a moment.
Result: lowest

Query: Determine which band this sequence sits in: RRIRPRPPRLPRPRPRPLYTPRP
Result: lowest

Query: Category lookup for the sequence RRIRKRPPRLPRPRPRPPCCPRP
Result: highest

Query: In plain terms, what class is RRIRWRPPRLPRPRPRPDLRPRP ?
Result: middle

Query: Given RRIRYRPPRLPRPRPRPPWCPRP , name the class its shrunken log2 fold change places it in.
Result: lowest

Query: Class (by measured shrunken log2 fold change) for RRIRPRPPRLPRPRPRPCSHPRP
Result: middle

Query: Looking at RRIRRRPPRLPRPRPRPYAFPRP , which class would you pick?
Result: middle

Query: Please classify: RRIRERPPRLPRPRPRPQFFPRP
Result: middle

Query: Lab note: which band did RRIRWRPPRLPRPRPRPPPQPRP land in?
Result: highest

Query: Just checking, what class would you give RRIRSRPPRLPRPRPRPFWRPRP here?
Result: highest

Query: Band of RRIRYRPPRLPRPRPRPMLCPRP ?
Result: middle

Query: Each sequence maps to one class by shrunken log2 fold change. Which class for RRIRNRPPRLPRPRPRPRNNPRP ?
Result: lowest

====

# Test system: Escherichia coli TOP10
# assay_details: shrunken log2 fold change of peptide-encoding DNA abundance (4.5 h post-induction vs induction); higher = less antimicrobial activity (less host growth inhibition)
# assay_conditions: time post-induction: 4.5 h; library: site-saturation at positions 5, 18, 19, 20
shrunken log2 fold change by entry:
Just the number, please, no unit attached.

Reference set, count: 5
| entry_sequence | target_system | quantitative_readout |
| --- | --- | --- |
| RRIRSRPPRLPRPRPRPIIVPRP | Escherichia coli TOP10 | 0.0771 |
| RRIRQRPPRLPRPRPRPCSAPRP | Escherichia coli TOP10 | -0.257 |
| RRIRNRPPRLPRPRPRPQQQPRP | Escherichia coli TOP10 | 0.103 |
| RRIRRRPPRLPRPRPRPHAGPRP | Escherichia coli TOP10 | 0.425 |
| RRIRHRPPRLPRPRPRPTLCPRP | Escherichia coli TOP10 | -0.134 |

Query: For RRIRIRPPRLPRPRPRPKFIPRP , what is its reported shrunken log2 fold change?
Result: -0.375

====

# System: Escherichia coli TOP10
# assay_details: shrunken log2 fold change of peptide-encoding DNA abundance (4.5 h post-induction vs induction); higher = less antimicrobial activity (less host growth inhibition)
# assay_conditions: time post-induction: 4.5 h; library: site-saturation at positions 5, 18, 19, 20
Decide using shrunken log2 fold change: a value greater than or equal to 0.05 is T, a smaller one is F.

| entry_sequence | target_system | qualitative_label |
| --- | --- | --- |
| RRIRIRPPRLPRPRPRPQDLPRP | Escherichia coli TOP10 | F |
| RRIRDRPPRLPRPRPRPQLVPRP | Escherichia coli TOP10 | T |
| RRIRYRPPRLPRPRPRPESCPRP | Escherichia coli TOP10 | F |

Query: Say whether RRIRQRPPRLPRPRPRPQMKPRP shows shrunken log2 fold change of 0.05 or more.
Result: F

Query: API: above_or_equal(metric=shrunken log2 fold change, cutoff=0.05) for item RRIRHRPPRLPRPRPRPGGAPRP
Result: T

Query: Check if shrunken log2 fold change >= 0.05 (inclusive). Item: RRIRNRPPRLPRPRPRPFINPRP
Result: F

====

Measured shrunken log2 fold change by item
# Tested on: Escherichia coli TOP10
# assay_details: shrunken log2 fold change of peptide-encoding DNA abundance (4.5 h post-induction vs induction); higher = less antimicrobial activity (less host growth inhibition)
# assay_conditions: time post-induction: 4.5 h; library: site-saturation at positions 5, 18, 19, 20
Note: the reply should be a number with no unit written.

| entry_sequence | quantitative_readout |
| --- | --- |
| RRIRCRPPRLPRPRPRPSTKPRP | -0.277 |
| RRIRTRPPRLPRPRPRPRETPRP | 0.511 |
| RRIRTRPPRLPRPRPRPDICPRP | 0.0407 |
| RRIRHRPPRLPRPRPRPFTCPRP | -0.231 |
| RRIRFRPPRLPRPRPRPMEFPRP | -0.194 |

Query: Which measured shrunken log2 fold change value corresponds to RRIRLRPPRLPRPRPRPWWVPRP ?
Result: 0.0559

Query: Looking for the measured shrunken log2 fold change of RRIRSRPPRLPRPRPRPEFRPRP , can you help?
Result: 0.15

Query: What value of shrunken log2 fold change has been recorded for this entry: RRIRFRPPRLPRPRPRPWSFPRP
Result: -0.34

Query: What measured shrunken log2 fold change goes with RRIRARPPRLPRPRPRPTMNPRP ?
Result: 0.0878

Query: // lookup shrunken log2 fold change for RRIRQRPPRLPRPRPRPFDFPRP
Result: -0.404

Query: Report shrunken log2 fold change for RRIRDRPPRLPRPRPRPFDTPRP please.
Result: -0.329

Query: Which shrunken log2 fold change is reported for this sequence? RRIRCRPPRLPRPRPRPSLHPRP
Result: -0.289

Query: Quick one: shrunken log2 fold change of RRIRPRPPRLPRPRPRPARKPRP ?
Result: 0.705

Query: Give its shrunken log2 fold change value. Item: RRIRIRPPRLPRPRPRPQAQPRP
Result: -0.108

====

# System: Escherichia coli TOP10
# assay_details: shrunken log2 fold change of peptide-encoding DNA abundance (4.5 h post-induction vs induction); higher = less antimicrobial activity (less host growth inhibition)
# assay_conditions: time post-induction: 4.5 h; library: site-saturation at positions 5, 18, 19, 20
measured_property: shrunken log2 fold change
// print number alone

| entry_sequence | shrunken log2 fold change |
| --- | --- |
| RRIRFRPPRLPRPRPRPDKEPRP | -0.0026 |
| RRIRNRPPRLPRPRPRPKQKPRP | 0.0568 |
| RRIRIRPPRLPRPRPRPPNSPRP | 0.0359 |

Query: Requested read-out: shrunken log2 fold change. Entry: RRIRHRPPRLPRPRPRPDYIPRP
Result: -0.0135

====

# Tested on: Escherichia coli TOP10
# assay_details: shrunken log2 fold change of peptide-encoding DNA abundance (4.5 h post-induction vs induction); higher = less antimicrobial activity (less host growth inhibition)
# assay_conditions: time post-induction: 4.5 h; library: site-saturation at positions 5, 18, 19, 20
Label scheme for shrunken log2 fold change: lower than 0.004 is Not met, 0.004 and above is Met.

Query: Assess whether reported shrunken log2 fold change for RRIRARPPRLPRPRPRPRAQPRP sits at 0.004 or higher.
Result: Met

Query: Exam item: decide whether the reported shrunken log2 fold change for RRIRDRPPRLPRPRPRPPGWPRP is at least 0.004.
Result: Met

Query: Say whether RRIRCRPPRLPRPRPRPNINPRP shows shrunken log2 fold change of 0.004 or more.
Result: Not met

Query: Please check the record RRIRLRPPRLPRPRPRPSMNPRP and state if its shrunken log2 fold change is at or above 0.004.
Result: Not met

====

# System: Escherichia coli TOP10;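 further: peptides expressed intracellularly from a pBAD plasmid library in pooled LB shake-flask culture, induced with 0.3% L-arabinose, DNA abundance read by NGS, three biological replicates, DESeq2 with apeglm shrinkage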
# assay_details: shrunken log2 fold change of peptide-encoding DNA abundance (4.5 h post-induction vs induction); higher = less antimicrobial activity (less host growth inhibition)
# assay_conditions: time post-induction: 4.5 h; library: site-saturation at positions 5, 18, 19, 20
measured_property: shrunken log2 fold change

| entry_sequence | target_system | shrunken log2 fold change |
| --- | --- | --- |
| RRIRMRPPRLPRPRPRPNAFPRP | Escherichia coli TOP10 | 0.344 |
| RRIRTRPPRLPRPRPRPGNTPRP | Escherichia coli TOP10 | -0.0393 |
| RRIRLRPPRLPRPRPRPGGRPRP | Escherichia coli TOP10 | -0.0451 |
| RRIRMRPPRLPRPRPRPKTHPRP | Escherichia coli TOP10 | 0.612 |
| RRIRVRPPRLPRPRPRPYVRPRP | Escherichia coli TOP10 | -0.492 |
| RRIRVRPPRLPRPRPRPGKGPRP | Escherichia coli TOP10 | 0.0187 |
| RRIRVRPPRLPRPRPRPPEFPRP | Escherichia coli TOP10 | 0.265 |
| RRIRFRPPRLPRPRPRPEIFPRP | Escherichia coli TOP10 | -0.139 |

Next sequence, please.
Query: shrunken log2 fold change; subject: RRIRRRPPRLPRPRPRPQSEPRP
Result: 0.0256

Source listed as the supplement of paper PMC9112550.
